Experiment: Biodistribution of radiotracers in normal mice
Type: in vivo, mouse
Conditions: normal male mice, 2 min
ASSAY READOUT: Biodistribution: Blood (% dose/g)
One number for each entry, in % dose/g.

COMPOUND	ASSAY READOUT	EXPERIMENTAL RESULT
C[C@H](NC(=O)CCc1ccc2c(c1)C[N+]13CC[N+]45CC(=O)[O][68Ga-3]41([O]C(=O)C3)([O]c1ccc(CCC(=O)NCCCCCC(=O)NCCCC[C@H](NC(=O)N[C@@H](CCC(=O)O)C(=O)O)C(=O)O)cc1C5)[O]2)C(=O)O (stereo partly shown) [[^68Ga]1d]	Biodistribution: Blood	7.44

Need Biodistribution: Blood for each of these compounds.
1. O=C(O)CC[C@H](NC(=O)N[C@@H](CCCCNC(=O)CCCCCNC(=O)CCc1ccc2c(c1)C[N+]13CC[N+]45CC(=O)[O][68Ga-3]14([O]C(=O)C3)([O]2)[O]c1ccc(CCC(=O)N[C@@H](CC(=O)O)C(=O)O)cc1C5)C(=O)O)C(=O)O (stereo partly shown) [[^68Ga]1e]
2. O=C(O)CC[C@H](NC(=O)CCc1ccc2c(c1)C[N+]13CC[N+]45CC(=O)[O][68Ga-3]41([O]C(=O)C3)([O]c1ccc(CCC(=O)NCCCCCC(=O)NCCCC[C@H](NC(=O)N[C@@H](CCC(=O)O)C(=O)O)C(=O)O)cc1C5)[O]2)C(=O)O (stereo partly shown) [[^68Ga]1f]
3. O=C(O)CCc1ccc2c(n1)C[N+]13CC[N+]45CC(=O)[O][68Ga-3]14([O]C(=O)C3)([O]2)[O]c1ccc(CCC(=O)NCCCCCC(=O)NCCCC[C@H](NC(=O)N[C@@H](CCC(=O)O)C(=O)O)C(=O)O)nc1C5 (stereo partly shown) [[^68Ga]2]

Marked response:
7.47
7.77
8.92

----------
Could you please report measured Biodistribution: Kidney for the items listed next?
Test: Biodistribution of radiotracers in normal mice
Type: in vivo, mouse
Settings: normal male mice, 60 min
Experimental: Normal CD-1 male mice were injected via the tail vein with 35 μCi of [^68Ga] radiotracers (0.2 nmole of ligand). […] All organs were removed and blood was also collected. Each organ was weighed, and the tissue radioactivity was measured with an automated gamma counter (Wizard, Perkin Elmer). The % ID/g was calculated by comparison with samples of a standard dilution of the initial dose. All measurements were corrected for decay.
One number for each entry, in % dose/g.

MOLECULE	VALUE UNIT	EXPERIMENTAL RESULT
O=C(O)CCc1ccc(O)c(CN(CCN(CC(=O)O)Cc2cc(CCC(=O)NCCCCCC(=O)NCCCC[C@H](NC(=O)N[C@@H](CCC(=O)O)C(=O)O)C(=O)O)ccc2O)CC(=O)O)n1 [[^68Ga]4a, metal not drawn]	% dose/g	181

Need Biodistribution: Kidney for each of these molecules.
1. O=C(O)CC[C@H](NC(=O)N[C@@H](CCCCNC(=O)CCCCCNC(=O)CCc1ccc2c(c1)C[N+]13CC[N+]45CC(=O)[O][68Ga-3]14([O]C(=O)C3)([O]2)[O]c1ccc(CCC(=O)NCC(=O)O)cc1C5)C(=O)O)C(=O)O (stereo partly shown) [[^68Ga]1c]
2. O=C(O)CCc1ccc2c(c1)C[N+]13CC[N+]45CC(=O)[O][68Ga-3]14([O]C(=O)C3)([O]2)[O]c1ccc(CCC(=O)NCCCCCC(=O)NCCCC[C@H](NC(=O)N[C@@H](CCC(=O)O)C(=O)O)C(=O)O)cc1C5 (stereo partly shown) [[^68Ga]1a, reference compound]

Marked response:
1. 83.5
2. 91.1

Need Biodistribution: Kidney for each of these molecules.
1. O=C(O)CCc1ccc2c(n1)C[N+]13CC[N+]45CC(=O)[O][68Ga-3]14([O]C(=O)C3)([O]2)[O]c1ccc(CCC(=O)NCCCCCC(=O)NCCCC[C@H](NC(=O)N[C@@H](CCC(=O)O)C(=O)O)C(=O)O)nc1C5 (stereo partly shown) [[^68Ga]2]
2. C[C@H](NC(=O)CCc1ccc2c(c1)C[N+]13CC[N+]45CC(=O)[O][68Ga-3]41([O]C(=O)C3)([O]c1ccc(CCC(=O)NCCCCCC(=O)NCCCC[C@H](NC(=O)N[C@@H](CCC(=O)O)C(=O)O)C(=O)O)cc1C5)[O]2)C(=O)O (stereo partly shown) [[^68Ga]1d]
3. O=C(O)CC[C@H](NC(=O)N[C@@H](CCCCNC(=O)CCCCCNC(=O)CCc1ccc2c(n1)C[N+]13CC[N+]45CC(=O)[O][68Ga-3]14([O]C(=O)C3)([O]2)[O]c1ccc(CCC(=O)NCCCCCC(=O)NCCCC[C@H](NC(=O)N[C@@H](CCC(=O)O)C(=O)O)C(=O)O)nc1C5)C(=O)O)C(=O)O (stereo partly shown) [[^68Ga]3]

Marked response:
[67.8, 141.7, 61.3]

Need Biodistribution: Kidney for each of these molecules.
1. O=C(O)CC[C@H](NC(=O)N[C@@H](CCCCNC(=O)CCCCCNC(=O)CCc1ccc2c(c1)C[N+]13CC[N+]45CC(=O)[O][68Ga-3]14([O]C(=O)C3)([O]2)[O]c1ccc(CCC(=O)NCCNC(=O)CN2CCN(CC(=O)O)CCN(CC(=O)O)CCN(CC(=O)O)CC2)cc1C5)C(=O)O)C(=O)O (stereo partly shown) [[^68Ga]1g]
2. O=C(O)CC[C@H](NC(=O)CCc1ccc2c(c1)C[N+]13CC[N+]45CC(=O)[O][68Ga-3]41([O]C(=O)C3)([O]c1ccc(CCC(=O)NCCCCCC(=O)NCCCC[C@H](NC(=O)N[C@@H](CCC(=O)O)C(=O)O)C(=O)O)cc1C5)[O]2)C(=O)O (stereo partly shown) [[^68Ga]1f]
3. O=C(O)CCc1ccc2c(c1)C[N+]13CC[N+]45CC(=O)[O][68Ga-3]14([O]C(=O)C3)([O]2)[O]c1ccc(CCC(=O)NCC(=O)N[C@@H](Cc2ccc(OCC(=O)N[C@@H](Cc3ccccc3)C(=O)NCCCC[C@H](NC(=O)N[C@@H](CCC(=O)O)C(=O)O)C(=O)O)cc2)C(=O)O)cc1C5 (stereo partly shown) [[^68Ga]5b]
4. O=C(O)CC[C@H](NC(=O)N[C@@H](CCCCNC(=O)CCCCCNC(=O)CCc1ccc2c(c1)C[N+]13CC[N+]45CC(=O)[O][68Ga-3]14([O]C(=O)C3)([O]2)[O]c1ccc(CCC(=O)N[C@@H](CC(=O)O)C(=O)O)cc1C5)C(=O)O)C(=O)O (stereo partly shown) [[^68Ga]1e]

Marked response:
[116, 120, 62.77, 113]
